Sourced from patent US20110118447A1

# MEASURED ON: binding partner of C5A (XPA23)
# TEST NAME: Biacore
RECORDED METRIC: fold difference in affinity vs original (fold)
Write the number in fold without appending the unit.

Which value of fold difference in affinity vs original has been reported for C5A (XPA23) VH Y101L (antibody, V domains shown) VH: EVQLLESGGGLVQPGGSLRLSCAASGFTFSKYFMFWVRQAPGKGLEWVSVISPSGGMTRYADSVKGRFTISRDNSKNTLYLQMNSLRAEDTAVYYCARVGLGGNSDYWGQGTLVTVSS VL: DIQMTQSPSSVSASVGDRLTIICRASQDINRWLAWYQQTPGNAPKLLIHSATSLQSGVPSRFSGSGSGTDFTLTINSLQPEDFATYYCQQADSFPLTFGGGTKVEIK in the records?
1.91

Which value of fold difference in affinity vs original has been reported for C5A (XPA23) VH S105P (antibody, V domains shown) VH: EVQLLESGGGLVQPGGSLRLSCAASGFTFSKYFMFWVRQAPGKGLEWVSVISPSGGMTRYADSVKGRFTISRDNSKNTLYLQMNSLRAEDTAVYYCARVGYGGNPDYWGQGTLVTVSS VL: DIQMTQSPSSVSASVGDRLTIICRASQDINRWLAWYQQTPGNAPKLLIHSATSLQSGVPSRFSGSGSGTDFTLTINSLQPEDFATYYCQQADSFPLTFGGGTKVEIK in the records?
1.41

Which value of fold difference in affinity vs original has been reported for C5A (XPA23) VH Y32V (antibody, V domains shown) VH: EVQLLESGGGLVQPGGSLRLSCAASGFTFSKVFMFWVRQAPGKGLEWVSVISPSGGMTRYADSVKGRFTISRDNSKNTLYLQMNSLRAEDTAVYYCARVGYGGNSDYWGQGTLVTVSS VL: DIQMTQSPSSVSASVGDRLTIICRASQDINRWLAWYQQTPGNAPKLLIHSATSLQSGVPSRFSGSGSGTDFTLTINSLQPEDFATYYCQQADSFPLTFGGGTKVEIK in the records?
1.07
